Target: T1, biotinylated PD1-ECD-AviHis (human, UniProt Q15116 25-170, biotinylated, site not stated)
T1 construct: also called huPD1; hu PD1
Test: ELISA on coated biotinylated PD1-ECD-AviHis
measuredMetric: EC50 (µg/mL)
Give the value in µg/mL but do not write µg/mL after it.

# example entries with known answers
PD1-0103-0315 (antibody, human IgG1, V domains shown, Humanized) VH: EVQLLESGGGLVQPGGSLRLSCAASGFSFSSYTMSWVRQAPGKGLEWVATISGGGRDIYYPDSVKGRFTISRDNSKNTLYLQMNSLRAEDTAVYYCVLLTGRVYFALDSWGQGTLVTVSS VL: EIVLTQSPATLSLSPGERATLSCRASESVDTSDNSFIHWYQQKPGQSPRLLIYRSSTLESGIPARFSGSGSGTDFTLTISSLEPEDFAVYYCQQNYDVPWTFGQGTKVEIK | 0.01
PD1-0103-0312 (antibody, human IgG1, V domains shown, Humanized) VH: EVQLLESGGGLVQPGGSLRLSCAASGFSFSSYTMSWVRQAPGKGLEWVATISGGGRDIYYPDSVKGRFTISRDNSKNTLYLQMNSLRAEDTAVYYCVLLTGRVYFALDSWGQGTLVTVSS VL: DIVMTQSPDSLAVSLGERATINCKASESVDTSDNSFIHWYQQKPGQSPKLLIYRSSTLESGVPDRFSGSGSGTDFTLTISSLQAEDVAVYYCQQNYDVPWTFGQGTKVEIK | 0.011
PD1-0103-0314 (antibody, human IgG1, V domains shown, Humanized) VH: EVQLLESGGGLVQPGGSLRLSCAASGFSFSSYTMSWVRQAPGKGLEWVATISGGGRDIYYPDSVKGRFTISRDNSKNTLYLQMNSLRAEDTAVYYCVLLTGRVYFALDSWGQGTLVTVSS VL: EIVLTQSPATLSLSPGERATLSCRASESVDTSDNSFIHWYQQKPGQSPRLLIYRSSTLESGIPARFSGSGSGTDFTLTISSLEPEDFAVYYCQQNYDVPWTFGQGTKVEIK | 0.011

For the next question, use this binder.
Return EC50 for the following binder: PD1-0103-0313 (antibody, human IgG1, V domains shown, Humanized) VH: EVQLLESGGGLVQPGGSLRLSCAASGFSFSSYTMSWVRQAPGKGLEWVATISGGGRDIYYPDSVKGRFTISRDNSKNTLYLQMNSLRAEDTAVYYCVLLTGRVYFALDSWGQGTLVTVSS VL: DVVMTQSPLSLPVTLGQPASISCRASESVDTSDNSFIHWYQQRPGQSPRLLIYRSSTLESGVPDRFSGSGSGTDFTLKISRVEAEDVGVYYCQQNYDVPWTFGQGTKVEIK
0.015
